- measurement.target: human notum pectinacetyltransferase (Homo sapiens)
- Construct: made in house; unpurified conditioned medium used
- Sequence (Q6P988 20-496): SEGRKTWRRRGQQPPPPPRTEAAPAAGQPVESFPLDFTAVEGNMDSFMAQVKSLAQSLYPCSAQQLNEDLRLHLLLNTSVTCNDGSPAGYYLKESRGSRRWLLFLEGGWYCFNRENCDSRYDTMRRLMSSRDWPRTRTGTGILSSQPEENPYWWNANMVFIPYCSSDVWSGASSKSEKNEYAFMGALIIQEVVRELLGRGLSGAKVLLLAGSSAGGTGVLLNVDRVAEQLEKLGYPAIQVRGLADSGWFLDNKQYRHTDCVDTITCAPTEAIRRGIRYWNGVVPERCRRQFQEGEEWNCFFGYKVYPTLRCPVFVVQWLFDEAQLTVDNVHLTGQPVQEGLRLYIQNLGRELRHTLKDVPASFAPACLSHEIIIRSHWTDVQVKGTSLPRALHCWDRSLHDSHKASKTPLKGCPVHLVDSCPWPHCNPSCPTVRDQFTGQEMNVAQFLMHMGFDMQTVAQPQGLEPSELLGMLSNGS
- assay.notes: Reporter assay (CellSensor LEF/TCF-bla FreeStyle 293F cells, Wnt3a and notum conditioned media)
- Type: cell-based
- test.settings: class symbols
pEC50: −log10 of the molar value.
Property: pEC50; scope: individual compounds

Record summary for O=C(O)c1cc2c(s1)-c1cc(F)c(Cl)cc1S(=O)(=O)C2 : reported pEC50 = > 7.30

Record summary for O=C(O)c1cc2c(s1)-c1sc(Cl)cc1CC2 : reported pEC50 = > 6.30

Record summary for Cc1ccc(C)c2c1SCc1cc(C(=O)O)sc1-2 : reported pEC50 = > 7.30

Record summary for NC(=O)c1cc2c(s1)-c1cc(F)cc(Cl)c1SC2 : reported pEC50 = > 7.30

Record summary for Cc1ccc(C)c2c1OCc1cc(C(=O)O)sc1-2 : reported pEC50 = > 7.30

Record summary for CCOC(=O)c1cc2c(s1)-c1ccc(Cl)c(F)c1SC2 : reported pEC50 = > 7.00

Next:
Record summary for O=C(O)c1cc2c(s1)-c1ccc(F)cc1CC2 : reported pEC50 = > 7.30
